System: E57 (patient-derived glioblastoma stem cells of mesenchymal subtype);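 note: nuclei counted by high-content imaging of Hoechst-stained cells in laminin-coated 384-well plates, relative to 0.1% DMSO vehicle wells, with staurosporine as cell-death control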
Assay Notes: surviving fraction (nuclei count normalised to DMSO); higher = more cells surviving (less toxic)
Experimental Conditions: 111.1 nM; exposure time: 72 h
Counter-ions that a name gives are not always drawn.
The compounds listed here are annotated with their surviving fraction.
No unit in the answer, please; the number alone is enough.

Completed entries (count: 2):
Prompt: Indicate the recorded surviving fraction value for this compound: CO[C@H]1C(=O)[C@]2(C)[C@@H](OC)C[C@H]3OC[C@@]3(OC(C)=O)[C@H]2[C@H](OC(=O)c2ccccc2)[C@]2(O)C[C@H](OC(=O)[C@H](O)[C@@H](NC(=O)OC(C)(C)C)c3ccccc3)C(C)=C1C2(C)C [Cabazitaxel]
Response: 0.117

Prompt: Indicate the recorded surviving fraction value for this compound: CCOC(=O)OC(C)OC(=O)[C@@H]1N2C(=O)[C@@H](NC(=O)[C@H](N)c3ccccc3)[C@H]2SC1(C)C (stereo partly drawn) [Bacampicillin hydrochloride]
Response: 1.03

---
Prompt: Indicate the recorded surviving fraction value for this compound: Cc1c(-c2ccc(-c3ccccc3F)cc2)nc2ccc(F)cc2c1C(=O)O [Brequinar sodium salt hydrate]
Response: 0.67

Where do these numbers come from? They come from the supplement of paper PMC13207355.
